B1: NP_006221.1 (parent)
chain: CQPISFSGFGAEDDDLGGLGLGP

Variants of: B1
Assay: protein stability index of a GFP-peptide fusion (GPS, HEK-293T) (PSI 1-6); higher = more stable;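 note: lentivirally expressed fusion library, cells FACS-sorted into six equal-sized GFP/DsRed ratio bins, PSI computed from sequencing read fractions per bin weighted by bin number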
Details: c terminus: native
Measured quantity: protein stability index
Just the number, please, no unit after it.

Reference set (4 entries):
| Variant | Measured quantity | Value measured |
| --- | --- | --- |
| F9L | protein stability index | 2.23 |
| L16H | protein stability index | 2.26 |
| F9C | protein stability index | 2.36 |
| P3C | protein stability index | 2.12 |

Given G8I , state its recorded protein stability index.
2.06
